Measured ΔTm by item
- Test system: poly A–poly U (pApU, AU-RNA) (RNA, polymer) A/U
- run description: UV melting at 260 nm
- assay context: Na+ (sodium cacodylate, I = 0.05 M); pH 7; ratio [dye]/[polynucleotide] = 0.1; error ±0.5 °C; per base

CCCC[N+](C)(CCCC)c1ccc(/C=C/c2cc(/C=C/c3ccc([N+](C)(CCCC)CCCC)cc3)cc(/C=C/c3ccc([N+](C)(CCCC)CCCC)cc3)c2)cc1 = +5.1 °C
CCCC[n+]1ccc(/C=C/c2cc(/C=C/c3cc[n+](CCCC)cc3)c(/C=C/c3cc[n+](CCCC)cc3)cc2/C=C/c2cc[n+](CCCC)cc2)cc1 = +1.7 °C

Prompt line: Under poly A–poly U (pApU, AU-RNA) (RNA, polymer) A/U: ΔTm value of C#CC[N+](C)(C)c1ccc(/C=C/c2cc(/C=C/c3ccc([N+](C)(C)CC#C)cc3)cc(/C=C/c3ccc([N+](C)(C)CC#C)cc3)c2)cc1 ?
Response line: +18.1 °C

Prompt line: Under poly A–poly U (pApU, AU-RNA) (RNA, polymer) A/U: ΔTm value of C[n+]1ccc(/C=C/c2cc(/C=C/c3cc[n+](C)cc3)cc(/C=C/c3cc[n+](C)cc3)c2)cc1 ?
Response line: +8.5 °C
